Measured TGI by item
Tested on: NCI-H23 lung
Assay: NCI tumour cell line growth inhibition, 48 h
recordedMetric: TGI

[[record]]
compound = "Cc1[nH]n(-c2nc(O)c(C)c(=O)[nH]2)c(=O)c1CCO"
reportedmeasurement = "> 100 µM"

[[record]]
compound = "CNC(=O)CNC(=O)CCC(=O)N(C)C"
reportedmeasurement = "> 100 µM"

[[record]]
compound = "C=CCN1C(=O)/C(=C/c2cccs2)N=C1SC1OC(COC(=O)c2ccccc2)C(OC(=O)c2ccccc2)C1OC(=O)c1ccccc1 (stereo unspecified)"
reportedmeasurement = "> 100 µM"

[[record]]
compound = "CCCCCC(/C=N/NC(N)=S)C(O)(C(F)(F)F)C(F)(F)F (stereo unspecified)"
reportedmeasurement = "> 10 µM"

[[record]]
compound = "COc1ccc(S(=O)Cc2cc(OC)ccc2OC)cc1 (stereo unspecified)"
reportedmeasurement = "> 100 µM"

[[record]]
compound = "NC1CCC[C@@H](O)[C@H]1O (stereo partly specified)"
reportedmeasurement = "> 100 µM"

